Molecular target: T1, Human TNFR2 recombinant protein (Sino 10417-H08H) (human, UniProt P20333 23-257)
T1 construct: also called hTNFR2 (His tag)
T1 sequence (looked up): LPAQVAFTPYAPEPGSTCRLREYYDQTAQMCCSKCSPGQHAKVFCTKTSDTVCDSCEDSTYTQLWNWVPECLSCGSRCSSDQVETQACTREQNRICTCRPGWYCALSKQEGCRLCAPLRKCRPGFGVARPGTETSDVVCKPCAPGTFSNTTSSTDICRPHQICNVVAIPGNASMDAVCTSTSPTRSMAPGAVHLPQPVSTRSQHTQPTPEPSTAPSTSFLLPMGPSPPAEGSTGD
Experiment: SPR Biacore, antibody on Protein A chip, TNFR2 analyte
property_label: kon (M⁻¹ s⁻¹)
The answer is to be given in M⁻¹ s⁻¹; state only the numeric part.

Sample records with kon:
Which kon is reported for this binder? TNFR2 antibody #352 (antibody, V domains shown) VH: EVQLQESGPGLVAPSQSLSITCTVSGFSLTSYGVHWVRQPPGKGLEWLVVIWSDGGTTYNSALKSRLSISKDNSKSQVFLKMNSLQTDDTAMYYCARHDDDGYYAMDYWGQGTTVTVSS VL: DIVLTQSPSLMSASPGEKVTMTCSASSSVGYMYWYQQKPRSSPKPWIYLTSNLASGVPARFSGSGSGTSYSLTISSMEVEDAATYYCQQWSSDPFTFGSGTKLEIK
1.59e+06

Consider next the binder TNFR2 antibody #226 (antibody, V domains shown) VH: EVQLQESGAELVRPGASVKLSCKASGYSFTNYWMNWVKQRPGQGLEWIGMIHPSDSETRLNQKFKDKATLTVDKSSSTAYMQLSSPTSEDSAVYYCARGEGLGAARSVSMDYWGQGTTVTVSS VL: DIQMTQSPSSLSASLGDRVTISCRASQDISNYLNWYQQKPDGTVKVLIYYTALLHSGVPSRFSGSGSGTDYSLTISNLEQEDIATYFCQQGNTLPWTFGGGTKLEIK in the same way.
369000

# evaluate next
kon lookup needed for TNFR2 antibody #395 (antibody, V domains shown) VH: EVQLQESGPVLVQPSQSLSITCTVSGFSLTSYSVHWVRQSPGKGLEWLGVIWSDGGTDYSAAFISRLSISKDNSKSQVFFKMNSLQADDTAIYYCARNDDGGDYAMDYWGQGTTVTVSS VL: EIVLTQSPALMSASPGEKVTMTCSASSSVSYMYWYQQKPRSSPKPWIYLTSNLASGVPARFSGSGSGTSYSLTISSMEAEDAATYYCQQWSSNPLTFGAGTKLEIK , thanks.
1.7e+06
